Data provenance is patent US20180228828A1.

assay: human bioavailability comparison study, Tablet Formulation 9 vs co-administered single entity products; type: in vivo; details: human, plasma, oral, Treatment C: two units Tablet Formulation 9b; human plasma, fasted; read-out: AUC0-24 GM
Item-by-item account of AUC(0-t)
Number first, unit second: that is the form wanted.

molecule	quantity	observed-value
C=C[C@@H]1C[C@]1(NC(=O)[C@@H]1C[C@@H]2CN1C(=O)[C@H](C(C)(C)C)NC(=O)O[C@@H]1C[C@H]1CCCCCc1nc3ccc(OC)cc3nc1O2)C(=O)NS(=O)(=O)C1CC1 [Compound III, hydrate]	AUC(0-t)	0.317 µM·h

get_value(item= COC(=O)N[C@H](C(=O)N1CCC[C@H]1c1nc(-c2ccc3c(c2)O[C@@H](c2ccccc2)n2c-3cc3cc(-c4c[nH]c([C@@H]5CCCN5C(=O)[C@@H](NC(=O)OC)C(C)C)n4)ccc32)c[nH]1)C(C)C , readout=AUC(0-t)) returns 1.41 µM·h
